target: DnaKLS (linker switch mutant of DnaK harbouring the PfHsp70-z linker) (E. coli); assay: SPR
Metric: Kd (nM)
Return type: number; implicit unit nM.

substance ALLLMYRR (peptide) , Kd observed: 1950

substance NRLLTG (peptide) , Kd observed: 891

substance ANNNMYRR (peptide) , Kd observed: 1770

substance NRNNTG (peptide) , Kd observed: 716

====

Exercise: for every item that follows, state its recorded Kd.
biological target: PfHsp70-1LS (linker switch mutant of PfHsp70-1 carrying the linker of PfHsp70-z) (Plasmodium falciparum); test: SPR
Answers without a unit are incomplete; give the number and then its unit.

substance NRNNTG (peptide) , Kd observed: 132 nM

substance NRLLTG (peptide) , Kd observed: 682 nM

substance ALLLMYRR (peptide) , Kd observed: 89.4 nM

substance ANNNMYRR (peptide) , Kd observed: 778 nM

====

Exercise: for every item that follows, state its recorded pKd.
target: PfHsp70-zLS (linker switch mutant of PfHsp70-z carrying the linker of canonical Hsp70) (Plasmodium falciparum) (UniProt Q8IC01); experiment: SPR
Notebook: values listed as pKd are -log10 of the concentration (mol/L).

substance ALLLMYRR (peptide) , pKd observed: 7.38

substance NRNNTG (peptide) , pKd observed: 7.59

substance ANNNMYRR (peptide) , pKd observed: 8.48

substance NRLLTG (peptide) , pKd observed: 7.68

====

molecular target: DnaKLS (linker switch mutant of DnaK harbouring the PfHsp70-z linker) (E. coli) (UniProt P0A6Y8); assay: SPR
Metric: pKd
Notebook: values listed as pKd are -log10 of the concentration (mol/L).

substance NRLLTG (peptide) , pKd observed: 6.02

substance NRNNTG (peptide) , pKd observed: 6.07

substance ANNNMYRR (peptide) , pKd observed: 5.77

substance ALLLMYRR (peptide) , pKd observed: 5.61
